Every entry's value here was drawn from PubChem BioAssay (NCI).

- Test system: UO-31 renal
- assay.remarks: NCI-60 one-dose screen, 48 h
- measurement.conditions: 10 µM unless noted
Compounds without any hit were thinned out: in the full panel of roughly 83,000, 20% have a hit. Active and inactive are the calls of the source. How the source made its calls: active means growth percent below 10; inactive means the rest.
Labels: 1 = active, -1 = inactive

[[record]]
compound = "O=C1CCC(=O)CC1"
qualitative_label = -1

[[record]]
compound = "NC1=Nc2cc(OCCCN3Cc4ccccc4C3)c(OCC3CC3)cc2C12CCCC2"
qualitative_label = -1

[[record]]
compound = "CO[C@H]1C[C@@H]2CC[C@@H](C)[C@@](O)(O2)C(=O)C(=O)N2CCCC[C@H]2C(=O)O[C@H]([C@H](C)C[C@@H]2CC[C@@H](OC(=O)C(C)(CO)CO)[C@H](OC)C2)CC(=O)[C@H](C)/C=C(\\C)[C@@H](O)[C@@H](OC)C(=O)[C@H](C)C[C@H](C)\\C=C/C=C/C=C/1C"
qualitative_label = -1

[[record]]
compound = "Cc1cc(Nc2nc(N[C@@H](C)c3ncc(F)cn3)ncc2Cl)n[nH]1"
qualitative_label = -1

[[record]]
compound = "O=C(Nc1cccc(Cl)c1)Nc1ncc(CCNc2ncnc3ccsc23)s1"
qualitative_label = -1

[[record]]
compound = "Cc1cccc(NC(=O)[C@@H]2c3ccccc3C(=O)N(c3ccc(Cl)cc3)[C@H]2c2ccc(Cl)cc2)n1"
qualitative_label = -1

[[record]]
compound = "CCN(CC)CCN1C(=O)c2cccc3c(-c4ccc5c(c4)ncn5C4CCCCC4)ccc(c23)C1=O"
qualitative_label = 1

[[record]]
compound = "COc1ccc(Cl)c(Nc2nc3ccccc3nc2NS(=O)(=O)c2cccc(NC(=O)C(C)(C)N)c2)c1"
qualitative_label = 1

[[record]]
compound = "Cc1cc(C(=O)Nc2cc(Oc3ccc4nc(NC(=O)C5CC5)cn4n3)ccc2C)n(C)n1"
qualitative_label = -1

[[record]]
compound = "Cc1ccc(Nc2nccc(N(C)c3ccc4c(C)n(C)nc4c3)n2)cc1S(N)(=O)=O"
qualitative_label = 1

[[record]]
compound = "COC(=O)N[C@@H](C)CNc1nccc(-c2cn(C(C)C)nc2-c2cc(Cl)cc(NS(C)(=O)=O)c2F)n1"
qualitative_label = -1

[[record]]
compound = "COc1c(C(NC(=O)c2ccccc2)c2sccc2C)cc(Cl)c2cccnc12 (stereo not drawn)"
qualitative_label = -1

[[record]]
compound = "CC/C(=C(\\c1ccc(OCCN2CCCCCCC2)cc1)c1ccc(OC(=O)C2CCCCC2)cc1)c1ccc(Cl)cc1"
qualitative_label = -1

[[record]]
compound = "Cc1cc(C(=O)NOCCO)c(Nc2ccc(I)cc2F)n(C)c1=O"
qualitative_label = -1

[[record]]
compound = "COc1cc(NC2CCC(=O)N2c2ccc(Cl)cc2Cl)cc(OC)c1OC (stereo not drawn)"
qualitative_label = -1

[[record]]
compound = "CO[C@@H](C(=O)N1Cc2[nH]nc(NC(=O)c3ccc(N4CCN(C)CC4)cc3)c2C1)c1ccccc1"
qualitative_label = -1

[[record]]
compound = "Nc1ncnc2c1c(-c1cccc(OCc3ccccc3)c1)cn2C1CC(CN2CCC2)C1 (stereo not drawn)"
qualitative_label = 1

[[record]]
compound = "CNC(=O)c1nn(C)c2c1C(C)(C)Cc1cnc(Nc3ccc(N4CCN(C)CC4)cc3)nc1-2"
qualitative_label = 1

